tested on: HL-60(TB) leukemia; experiment: NCI-60 one-dose screen, 48 h (100 = growth as untreated, 0 = no growth, -100 = all killed); conditions: 10 µM unless noted
Compounds without any hit were thinned out: in the full panel of roughly 83,000, 20% have a hit.
Please note: T applies when growth is 90% or greater, and F applies otherwise.

Tell me whether growth is at least 90% here: CCCCCCCCCCCCCCCCCC1=NC(C)(C)CN1C(C)(C)CO F

Tell me whether growth is at least 90% here: CN1C2CCC1/C(=C\c1ccc(F)cc1)C(=O)/C2=C/c1ccc(F)cc1 F

Tell me whether growth is at least 90% here: Cc1ccc(O)c(C(=O)c2ccccc2Cl)c1 T

Tell me whether growth is at least 90% here: Nc1c2c(nc3ccc(Cl)cc13)CC(c1ccc(O)cc1)CC2=O (stereo unspecified) F
